Provide the recorded bioavailability for the entries that follow.
experiment summary: Oral bioavailability in human
Format: ADME, organism-based
condition: in vivo
Answer in %, number only, no unit symbol.

Using the record for `COCCCOc1cc(C[C@@H](C[C@H](N)[C@@H](O)C[C@H](C(=O)NCC(C)(C)C(N)=O)C(C)C)C(C)C)ccc1OC` , report its bioavailability. 3

Using the record for `COC(=O)N[C@H](C(=O)N[C@@H](Cc1ccccc1)[C@@H](O)CN(Cc1ccc(-c2ccccn2)cc1)NC(=O)[C@@H](NC(=O)OC)C(C)(C)C)C(C)(C)C` , report its bioavailability. 60

###

experiment summary: Oral bioavailability in rat
Assay type: ADME, organism-based
condition: in vivo
observed property: bioavailability (%)
Answer in %, number only, no unit symbol.

Using the record for `COC(=O)N[C@H](C(=O)N[C@@H](Cc1ccccc1)[C@@H](O)CN(Cc1ccc(-c2ccccn2)cc1)NC(=O)[C@@H](NC(=O)OC)C(C)(C)C)C(C)(C)C` , report its bioavailability. 10

###

experiment summary: Fraction of the dose absorbed in rat
Assay type: ADME, organism-based
condition: in vivo, read-out: Fabs
Provide the recorded Fa for the entries that follow.

Using the record for `COC(=O)N[C@H](C(=O)N[C@@H](Cc1ccccc1)[C@@H](O)CN(Cc1ccc(-c2ccccn2)cc1)NC(=O)[C@@H](NC(=O)OC)C(C)(C)C)C(C)(C)C` , report its Fa. 54%

Using the record for `COCCCOc1cc(C[C@@H](C[C@H](N)[C@@H](O)C[C@H](C(=O)NCC(C)(C)C(N)=O)C(C)C)C(C)C)ccc1OC` , report its Fa. 0.5%

###

Provide the recorded Papp A→B for the entries that follow.
experiment summary: Apparent permeability across apical to basolateral side of MDCK cells
Format: ADME, cell-based, Canis lupus familiaris
condition: dog
Answer in ×10⁻⁶ cm/s, number only, no unit symbol.

Using the record for `COCCCOc1cc(C[C@@H](C[C@H](N)[C@@H](O)C[C@H](C(=O)NCC(C)(C)C(N)=O)C(C)C)C(C)C)ccc1OC` , report its Papp A→B. 1

Using the record for COC(=O)N[C@H](C(=O)N[C@@H](Cc1ccccc1)[C@@H](O)CN(Cc1ccc(-c2ccccn2)cc1)NC(=O)[C@@H](NC(=O)OC)C(C)(C)C)C(C)(C)C [ATAZANAVIR] , report its Papp A→B. 35
